System: RARg homodimer (NR concentration 270 nM)
testName: PBM binding z-score (relative to random genomic background probes); higher = stronger binding; sequences stand for … in GC…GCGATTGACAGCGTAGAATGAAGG
experimentalReadout: PBM binding z-score
Numbers only.

CCGACTGGGGCAAAGGCTACCATACTCAGTACGA: 0.501
ATCGAAAGGTCGTGCGGTGAGTATACAGAAAGGC: 4.28
ACAGACAGGTGATGAAGGTAAGTCAGGCTATCAT: 0.428

I would be grateful if you could provide PBM binding z-score for each of the following entries.
1. GTACCAAGGTGAATAGGTCGCTGATGAGTAGGCG
2. ACAGATAGGTGATGAAGGTAACTCAGGCTATCAT
3. TAGCCTAGGTCAGATCGGCCCAGTATACGCTATA
4. GCTTGTAGATCAAGGCTAAGAAAGACTAAGCTAA
5. ATCGAAAGGTCGAAGGTGAGTATACCCACCCGAA
6. CGTCCAAGGTCATAGGAGGTGAGTGAAGACAGAT

1.53
0.586
3.35
-0.429
3.81
5.64

I would be grateful if you could provide PBM binding z-score for each of the following entries.
1. ACTCGGAGGACAAAGTTCAGAGCTACGCCAGTGA
2. GCTATTAGTTGAAAGAGCAACCGAATGATTCTCG
3. AGAATGAGGTTATTAAGATCATGGAATTGCGGTC
4. TCATATACGTAAAGGTGAAAGTCGAACGATATGA
5. TCACATAGGTAAACAGGTGAAAGTCCGTAAGTTA
6. CTACCAAGGTGAAGAAGGTCGTTGATTACTATTC

[2.63, 0.242, 0.948, 1.22, 0.415, 1.07]

====

System: RXRa homodimer (NR concentration 180 nM)
testName: PBM binding z-score (relative to random genomic background probes); higher = stronger binding; sequences stand for … in GC…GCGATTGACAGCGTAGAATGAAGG
Given measured PBM binding z-score, output rule met if it is greater than or equal to 3 and rule not met if not.

Dear colleague, could you confirm whether `ATACCAAGGTGATCGTGAGGACGTTGATACTAAC` has PBM binding z-score at or above 3?
rule not met

Dear colleague, could you confirm whether `TCTGCTAGGTCAACGATGGTCAACTAATCTGCTA` has PBM binding z-score at or above 3?
rule not met

Dear colleague, could you confirm whether `TGAAAGAGGTTATAAGATCAGGGAACGTTGCAAA` has PBM binding z-score at or above 3?
rule not met

Dear colleague, could you confirm whether `TCTTGTAGATCAAAGGTTAAAAAAGCCGAAGCCT` has PBM binding z-score at or above 3?
rule met

Dear colleague, could you confirm whether `CCTGCTAGGTCATGCTCAGCTAATCTACAGTATG` has PBM binding z-score at or above 3?
rule not met

Dear colleague, could you confirm whether `TCTAGCAGGCCAGAGGGTCACGCAAGAGGTACGG` has PBM binding z-score at or above 3?
rule met

====

System: VDR:RXRa (NR concentration 270 nM, RXRa partner concentration 90 nM)
testName: PBM binding z-score (relative to random genomic background probes); higher = stronger binding; sequences stand for … in GC…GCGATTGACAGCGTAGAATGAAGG
Would you kindly list PBM binding z-score for each of these sequences?

Completed entries (count: 5):
CCTTACGGGTCACTGACAGGTTATAGCTTTTGGA: 3.56
TCTTGTAGATCAATAGAGGTTAAGAGAGTGCGCT: 2.79
CCAGACAGGTGAAAGGTAACTCAGTCTGGTACGC: 0.989
CCTTACGGGTCACGATGTTATAGCACGACGAGCG: 3.73
TCACATAGGTAAACAGGTGAAAGTCCGTAAGTTA: 0.849

I would be grateful if you could provide PBM binding z-score for each of the following entries.
1. AATACAGGGTCATCGTGGGCCAGAGTACGCACAG
2. ACTAGCAGGCCACGGGTCACTCAAGATTAGTCCG
3. ATCTCTAGCTAAAGATAGTTCAGTGAATGCAAAT
4. TCTGCTAGGCCAACGATGGTCAGCTAATCTGCTA
5. ACTTACGGGTCAACGAGGTTATATCACGCGTATA
6. CCTGCTAGGTCATGGTCAGCTGATCTACAGTATG
7. ACTATTAGTTGTCTTAGGGCAACCGATACGACGC

[5.18, 1.2, 0.182, -0.596, 7.44, 1.95, -0.0128]

====

Test system: PXR:RXRa (NR concentration 270 nM, RXRa partner concentration 90 nM)
testName: PBM binding z-score (relative to random genomic background probes); higher = stronger binding; sequences stand for … in GC…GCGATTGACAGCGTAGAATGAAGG
Entries are grouped by PBM binding z-score into these classes: low class (below 0.3), middle class (0.3 to below 2), high class (2 or more)

ATCTCTAGGTAAAGATCAGTGAAAGATCGATAGA: low class
ATCTCTAGGTAAAGATAGGTCAGTGAATGCAAAT: middle class
TCATAGAGGTAAATGCTAGGTGAAAGTCCGATCT: low class
GGAATGAGGGCAAAGTTGATAGCATCTGTCGACG: middle class
GCTGCTAGGTCAGGTCGGTCAGCTAACGGGTACG: middle class

Hi there! Could you help me figure out the category for `CGTCCAAGGTCATGGTCAGTGAAAGAGACTCGAA` please?
high class

Hi there! Could you help me figure out the category for `TCTTGTAGATCAATAGAGGTTAGGAAAGTGCGCT` please?
high class

Hi there! Could you help me figure out the category for `TGAATGAGGTTAAAGATCAGCGAACGTGGCGTCG` please?
middle class

====

System: LXRb:RXRa (NR concentration 270 nM, RXRa partner concentration 90 nM)
testName: PBM binding z-score (relative to random genomic background probes); higher = stronger binding; sequences stand for … in GC…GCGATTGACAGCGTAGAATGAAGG
Would you kindly list PBM binding z-score for each of these sequences?

Completed entries (count: 6):
TCGAGTAGGTTACCAATGGGGCATTCAGCTTTCT: 0.966
CGAACTGGGTCAAGGACAGTGAATCTCCGCACGC: 1.24
TCTTGTAGAACAATAGAGGTTAAGAAAGTGCGCT: 1.58
TCAGACAGGGGAAGGTAACTCAGGTACGCAGTCG: 1.3
TATACAGGGTCAAAGCCCAGAGTACGAATGTCGA: 4.7
GCTGCTAGGTCAACTGACGGTCAGCTAAAGCTCG: 2.5

I would be grateful if you could provide PBM binding z-score for each of the following entries.
1. CCAGACAGGTGAAAGGTAATTCAGTCTGGTACGC
2. ACTAGTTGGTCAGCTGAGGTCACGCACAATTCGG

0.645
3.79

====

System: PPARg:RXRa (NR concentration 180 nM, RXRa partner concentration 90 nM)
testName: PBM binding z-score (relative to random genomic background probes); higher = stronger binding; sequences stand for … in GC…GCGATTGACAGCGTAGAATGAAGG
Given measured PBM binding z-score, output Fulfilled if it is greater than or equal to 1 and Not fulfilled if not.

CCTACTGGGCCAAAGGTCATCGATTCCAATGCTC: Fulfilled

Dear colleague, could you confirm whether `CAAACTAGGTCACAGAGGTAAAAGTCCGTGCGTA` has PBM binding z-score at or above 1?
Fulfilled

Dear colleague, could you confirm whether `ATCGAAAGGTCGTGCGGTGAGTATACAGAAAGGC` has PBM binding z-score at or above 1?
Fulfilled

Dear colleague, could you confirm whether `AGAGTGAGGTTATACGTAGATCAGGGAAGAAAGT` has PBM binding z-score at or above 1?
Fulfilled

Dear colleague, could you confirm whether `ACTAGCAGGCCTAGGGTCACTCAAGATTAGTCCG` has PBM binding z-score at or above 1?
Fulfilled

Dear colleague, could you confirm whether `ACTATTAGTTGACTTAGGGGAACCGATACGACGC` has PBM binding z-score at or above 1?
Not fulfilled

Dear colleague, could you confirm whether `ATCCCTAGGTAAGACTCAGTTCAGTGAAGAACGC` has PBM binding z-score at or above 1?
Not fulfilled

Dear colleague, could you confirm whether `CCAGACAGGTGAGAAGGTAACTCGGCCTCGATTA` has PBM binding z-score at or above 1?
Not fulfilled

====

Test system: FXR:RXRa (NR concentration 270 nM, RXRa partner concentration 90 nM)
testName: PBM binding z-score (relative to random genomic background probes); higher = stronger binding; sequences stand for … in GC…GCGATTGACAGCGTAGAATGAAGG
Would you kindly list PBM binding z-score for each of these sequences?

Completed entries (count: 5):
ACTAGTTGGTCAGCAGAGGTCACACACAATTCGG: 4.13
TCAGACAGGTGAAGTTAACTCAGGTACGCAGTCG: 0.865
CGAGACAGGTGAGAAGGTAACTCAGCCTCGATTA: -0.0468
GGAACTAGGGCAAGTTGATAGCAGAGTTTGATGG: 0.0855
CGACCTAGGTCATTGACAGGACAGTGAATAGTAA: 5.8

I would be grateful if you could provide PBM binding z-score for each of the following entries.
1. CAAACTCGGTCACGAAAGGTCAAAGTCGAATGAC
2. CCGACTGGGGCAAGGTTACCATTACGCACAGCCA
3. TCTGCTAGGTCAACGATGGTCAGCTGATCTGCTA
4. TGTGAAAGTTCAAAGGTAACGTAAGTATCCACAC
5. GTACCAAGGTGAGTAGGTCGTTGATGAGTAGGCG
6. CCTATTAGTTGACCATAAAGGCAACCGAAGCTCG
7. TCATATAGGTAAACAGGAGAAAGTCCGTAAGTTA

6.39
0.0277
3.18
6.55
0.04
0.384
0.871

I would be grateful if you could provide PBM binding z-score for each of the following entries.
1. ACTGACGGGTCAACGAGGTTATAGCACGCGTATA
2. CTTCAAAGTTCAAGGTAACGTAACAGAAAGCAGC
3. CGAACTAGATCATCCAGGACAGTGAATACATTGA
4. CCTGCTAGGTCATGGTCAGCCAATCTACAGTATG
5. GCTGCTAGATCAACTGATGGTCAGCTAAAGCTCG
6. GCAGACAGGTGGAACGCAGGTAACTCAGGGTGGC
7. CCTTACGGGTCACGAGGGTATAGCACGACGAGCG

1: 5.56; 2: 5.99; 3: 0.155; 4: 3.64; 5: -0.351; 6: -0.427; 7: 6.44

I would be grateful if you could provide PBM binding z-score for each of the following entries.
1. CCTTACGGGTCACGAGATTATAGCACGACGAGCG
2. TCAGACGGGTGAAGGTAACTCAGGTACGCAGTCG
3. GCTCTGAGGACAAGGTCAGAGCTTTGTCCGTAGA
4. CAAACTGGGTCAAGGTCAAAGTCGGTTTGTGCCA
5. GATATTAGTTGAAAGGGCAACCGAATGATTCTCG
6. GGAACGAGTGCAAGTTGATAGCAGAGTTTGATGG
7. TCTAGTTGGTCAAAGGTGACACACTCGAAATGCG

[6.02, 0.211, 1.69, 6.14, 0.693, -0.219, 1.46]
